- target: GST-TMEM106B (truncated, comprising amino acids 122-210 of SEQ ID NO:1) (Homo sapiens, UniProt Q9NUM4)
- Sequence (Q9NUM4 122-210): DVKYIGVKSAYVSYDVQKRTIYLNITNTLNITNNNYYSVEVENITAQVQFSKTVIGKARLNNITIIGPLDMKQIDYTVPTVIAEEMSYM
- method: Pre-mix epitope binning of anti-TMEM106B antibodies (Carterra / Lake Pharma)
- Assay type: binding
- Set-up: key: Bin 1: competes for binding to the same or overlapping TMEM106B region as the TM1, TM17, TM22, TM26, TM79, and/or TM82 antibodies; Bin 2: competes for binding to the same or overlapping TMEM106B region as the TM3, TM9, TM10, TM11, TM12, TM13, TM18, TM19, TM21, TM24, TM25, TM32, TM35, TM37, TM42, TM45, TM48, TM54, TM59, TM60, TM61, and/or TM76 antibodies; Bin 3: competes for binding to the same or overlapping TMEM106B region as the TM7, TM15, TM83, and/or TM84 antibodies; Bin 4: competes for binding to the same or overlapping TMEM106B region as the TMS, TM28, TM29, TM30, TM63, TM64, TM72, TM78, TM80, TM86, and/or TM88 antibodies; Bin 5: does not bind to a truncated TMEM106B comprising amino acids 122-210 of SEQ ID NO:1
- test_context: competition for binding to truncated GST-TMEM106B (amino acids 122-210)

molecule | epitope bin
TM-15: anti-TMEM106B monoclonal antibody; CDR-H1-3 SEQ ID NO: 15, 49, 92; CDR-L1-3 SEQ ID NO: 133, 171, 197 (antibody, V domains shown) VH: QVQLQQPGAEFVRPGASVKLSCKASGYTFTNYWITWVKQRPGHGLEWIGDIYPGSGNSNYNESFKRKATLTVDTSSSTAYMHLSSQTSEDSAVYFCARKAYGGFPYWGQGTLVTVSA VL: DIQMTQSPASLSVSVGETVTITCRVSENIYNNLAWYQQKQEKSPQLLVFAATNLADGVPSRFSGSGSGTQFSLKINSLQSEDFGTYYCQHFWDTPFTFGSGTKLEIK | Bin 3
TM-79: anti-TMEM106B monoclonal antibody; VH SEQ ID NO: 484, VL SEQ ID NO: 519 (antibody, V domains shown, Variable Heavy Chain -- TM-79; Variable Light Chain -- TM-79) VH: EVQLQQSGPELVKPGASVKMSCKASGYTFTNYVMHWLKQKPGQGLEWIAHITPHNDGTKYNEKFKGKATLTSDRSSSTAYMELNSLTSEDSAIYYCARSGQFGRGDYFHYWGQGTTVTVSS VL: DIVLTQSPASLAVSLGQRATISCRASKSVSTSGSIYIHWYQQKPGQPPKLLIYLTSNLESGVPARFSGSGSGTDFTLNIHPVEEEDAATYYCQHSGELPWTFGGGARLEIK | Bin 1
